Test name: total protein half-life in vivo (active degradation + dilution); higher = more stable protein
Setup conditions: E. coli NCM3722 delta-hslV; growth: N-lim chemostat; doubling time 6 h
sequences and their reported total protein half-life in vivo
Return type: number; implicit unit h.

1) MTDNNTALKKAGLKVTLPRLKILEVLQEPDNHHVSAEDLYKRLIDMGEEIGLATVYRVLNQFDDAGIVTRHNFEGGKSVFELTQQHHHDHLICLDCGKVIEFSDDSIEARQREIAAKHGIRLTNHSLYLYGHCAEGDCREDEHAHEGK [P0A9A9]; 4.58
2) MGKLTLLLLAILVWLQYSLWFGKNGIHDYTRVNDDVAAQQATNAKLKARNDQLFAEIDDLNGGQEALEERARNELSMTRPGETFYRLVPDASKRAQSAGQNNR [P0A6S5]; 4.05
3) MQSVDVAIVGGGMVGLAVACGLQGSGLRVAVLEQRVQEPLAANAPPQLRVSAINAASEKLLTRLGVWQDILSRRASCYHGMEVWDKDSFGHISFDDQSMGYSHLGHIVENSVIHYALWNKAHQSSDITLLAPAELQQVAWGENETFLTLKDGSMLTARLVIGADGANSWLRNKADIPLTFWDYQHHALVATIRTEEPHDAVARQVFHGEGILAFLPLSDPHLCSIVWSLSPEEAQRMQQASEDEFNRALNIAFDNRLGLCKVESARQVFPLTGRYARQFASHRLALVGDAAHTIHPLAGQGVNLGFMDAAELIAELKRLHRQGKDIGQYIYLRRYERSRKHSAALMLAGMQGFRDLFSGTNPAKKLLRDIGLKLADTLPGVKPQLIRQAMGLNDLPEWLR; 4.33

**Query** // total protein half-life in vivo lookup, key: MDALELLINRRSASRLAEPAPTGEQLQNILRAGMRAPDHKSMQPWHFFVIEGEGRERFSAVLEQGAIAAGSDDKAIDKARNAPFRAPLIITVVAKCEENHKVPRWEQEMSAGCAVMAMQMAAVAQGFGGIWRSGALTESPVVREAFGCREQDKIVGFLYLGTPQLKASTSINVPDPTPFVTYF [P0ACY1]
**Result** 4.55
